target: Nuclear receptor ROR-gamma (Homo sapiens); assay: Agonist activity at human RoRc-LBD in human PBMC cells assessed as inhibition of IL-17A production by luciferase assay; assay type: functional, cell-based
Sequence (P51449 whole entry, the tested form may be a part): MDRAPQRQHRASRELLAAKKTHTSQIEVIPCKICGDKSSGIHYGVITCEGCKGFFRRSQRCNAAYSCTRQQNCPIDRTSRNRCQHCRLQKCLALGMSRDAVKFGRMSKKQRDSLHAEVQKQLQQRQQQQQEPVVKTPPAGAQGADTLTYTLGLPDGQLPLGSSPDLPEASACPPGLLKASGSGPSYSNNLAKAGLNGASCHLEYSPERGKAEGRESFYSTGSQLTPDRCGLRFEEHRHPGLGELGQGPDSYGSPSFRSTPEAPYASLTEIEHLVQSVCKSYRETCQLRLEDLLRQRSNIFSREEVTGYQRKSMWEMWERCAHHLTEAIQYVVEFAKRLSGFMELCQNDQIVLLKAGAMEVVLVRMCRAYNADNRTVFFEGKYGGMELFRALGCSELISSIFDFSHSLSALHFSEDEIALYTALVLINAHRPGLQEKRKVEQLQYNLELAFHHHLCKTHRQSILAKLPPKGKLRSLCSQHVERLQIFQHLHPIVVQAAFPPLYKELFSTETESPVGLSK
# EC50 listing for each entry below

# annotated cases, reported EC50 shown
{"columns": ["compound", "EC50"],
 "data": [
  ["Cc1noc(C)c1COc1ccc(S(=O)(=O)N(CC(C)C)c2ccc(Cl)cc2)cc1", "< 1000 nM"],
  ["CC(C)c1ccc(N(C(C)C(C)C)S(=O)(=O)c2ccc(OCC3CCOCC3)cc2)nc1 (stereo not drawn)", "< 1000 nM"]
]}

Hello, I am looking for reported EC50 with Nuclear receptor ROR-gamma (Homo sapiens) for Cc1ccc(N(CC(C)C)S(=O)(=O)c2ccc(OCc3ccncc3)cc2)c(C)c1 . Could you help?
316 nM
